Assign EE (%) to each entry below.
Assay: Encapsulation efficiency of RNA (QUANT-IT RIBOGREEN RNA assay)
Assay type: physicochemical
Details: Table 1A
Give your result in % as a bare value.

## Input Would you kindly share the measured EE (%) for CCCCCCCCCOC(=O)CCCCCCCN(CCO)CCCCCCCC(=O)OC(CC)CCCCCCCC (stereo not drawn) [Compound 35] ?
## Output 90.82

## Input Quick check: EE (%) of CCCCCCCCCOC(=O)CCCCCCCN(CCCCCCCC(=O)OC(CCCCCCCC)CCCCCCCC)CCCC(=O)NC [Compound 239] ?
## Output 90.42

## Input Request the reported EE (%) associated with CCCCCC/C=C\COC(=O)CCCCCCCN(CCO)CCCCCCCC(=O)OC(CCCCCCCC)CCCCCCCC [Compound 24]
## Output 97.16

## Input Which EE (%) reading was recorded for the molecule CCCCCCCCCOC(=O)CCCCCCCN(CCO)CCCCCCCCCC(CCCCCCCC)CCCCCCCC [Compound 153] ?
## Output 98.39

## Input Requested read-out: EE (%). Entry: CCCCCCCCCOC(=O)CCCCCCCN(CCCCCCCC(=O)OC(CCCCCCCC)CCCCCCCC)CCCNC(=S)N(C)C [Compound 111]
## Output 76.8

## Input Request the reported EE (%) associated with CCCCCCCCCOC(=O)CCCCCCCN(CCCCCCCC(=O)OC(CCCCCCCC)CCCCCCCC)CCOC [Compound 15]
## Output 92.47

## Input Requested field: EE (%). Item: CCCCCCCCCOC(=O)CCCCCCCN(CCO)CCCCCCCCCC(=O)OC(CCCCCCCC)CCCCCCCC [Compound 23]
## Output 92.68

## Input Given CCCCCCCCCOC(=O)CCCCCCCN(CCC#N)CCCCCCCC(=O)OC(CCCCCCCC)CCCCCCCC [Compound 21] , state its recorded EE (%).
## Output −15.1

## Input # EE (%) lookup, item CCCCCCCCCOC(=O)CCCCCCCN(CCCCCCCC(=O)OC(CCCCCCCC)CCCCCCCC)CCCNC(=S)NC [Compound 113]
## Output 96.92

## Input State the recorded EE (%) for this entry: CCCCCCCCCOC(=O)CCCCCCCN(CCCCCCCC(=O)OC(CCCCCCCC)CCCCCCCC)CCOCCO [Compound 154]
## Output 94.28

## Input # get_value(readout='EE (%)', item= CCCCCCCCCOC(=O)CCCCCCCN(CCO)CCCCCCCC(=O)OC(CCCCCC)CCCCCCCC (stereo not drawn) [Compound 32] )
## Output 94.87

## Input Report EE (%) for CCCCCCCCCCCOC(=O)CCCCCN(CCO)CCCCCCCC(=O)OC(CCCCCCCC)CCCCCCCC [Compound 25] please.
## Output 95.80

## Input # lookup: EE (%) of CCCCCCCCCOC(=O)CCCCCCCN(CCCCCCCC(=O)OC(CCCCCCCC)CCCCCCCC)CCCNC(C)=O [Compound 108]
## Output 96

## Input Returns the measured EE (%) for the input molecule. Input: CCCCCCCCCCCOC(=O)CCCCCN(CCO)CCCCCC(=O)OCCCCCCCCCCC [Compound 141]
## Output 94.1

## Input Form field: reported EE (%) of CCCCCCCCCOC(=O)CCCCCCCN(CCO)CCCCCCCC(=O)OC1CCC(CCCCC)CC1 (stereo not drawn) [Compound 79]
## Output 89.1

## Input Tell me the measured EE (%) of CCCCCCCCCOC(=O)CCCCCCCN(CCO)CCCCCCC(=O)OCC(CCCCCCCC)CCCCCCCC [Compound 143] , please.
## Output 97.37

## Input State the recorded EE (%) for this entry: CCCCCCCCC(CCCCCCCC)C(=O)OCCCCCCCN(CCO)C(C)CCCCCCCCOC(=O)CCCCCCC (stereo not drawn) [Compound 162]
## Output 94.1

## Input Which EE (%) is listed for CCCCCCCCCOC(=O)CCCCCCCN(CCCCCCCC(=O)OC(CCCCCCCC)CCCCCCCC)CCN(C)C [Compound 14] ?
## Output 95.24

## Input Quick check: EE (%) of CCCCCCCCC(CCCCCCCC)OC(=O)CCCCCCCN(CCO)CCCCCCCC(=O)O[C@H](C)CCCCCCCC [Compound 172] ?
## Output 95.4

## Input Bench note: what EE (%) did CCCCCCCCCOC(=O)CCCCCCCN(CCCCCCCC(=O)OC(CCCCCCCC)CCCCCCCC)CCCn1cc(CO)nn1 [Compound 218] show?
## Output 98.8

## Input Which EE (%) value belongs to CCCCCCCCCOC(=O)CCCCCCCN(CCCCCCCC(=O)OC(CCCCCCCC)CCCCCCCC)CCCn1ccc(N)nc1=O [Compound 115] ?
## Output 99.7

## Input EE (%) lookup needed for CCCCCCCCCOC(=O)CCCCCCCN(CCO)CCCCCCCC(=O)OC(CC)CC [Compound 59] , thanks.
## Output 94.44

## Input I would be grateful if you could share the reported EE (%) for CCCCCCCCC(C)OC(=O)CCCN(CCO)CCCCCCCC(=O)OC(CCCCCCCC)CCCCCCCC (stereo not drawn) [Compound 70] .
## Output 97.5

## Input Looking for the measured EE (%) of CCCCCCCCCOC(=O)CCCCCCCN(CCCCCCCC(=O)OC(CCCCCCCC)CCCCCCCC)CCCNc1c(NC)c(=O)c1=O [Compound 182] , can you help?
## Output 99.0

## Input // lookup EE (%) for CCCCCCCCCC(C)(O)CCCCCCCCN(CCO)CCCCCCCC(=O)OC(CCCCCCCC)CCCCCCCC (stereo not drawn) [Compound 171]
## Output 85.0

## Input Requested read-out: EE (%). Entry: CCCCCCCCC(CCCCCCCC)OC(=O)CCCCCCCN(CCO)CCCC(=O)OCCCCCCC [Compound 54]
## Output 96.71

## Input What does the record list as EE (%) for CCCCCCCCCOC(=O)CCCCCCCN(CCCCCCCC(=O)OC(CCCCCCCC)CCCCCCCC)CCCN/C(=C/[N+](=O)[O-])NC [Compound 170] ?
## Output 96.7

## Input Fill in the blank: the reported EE (%) of CCCCCCCCCOC(=O)CCCCCCCN(CCCCCCCC(=O)OC(CCCCCCCC)CCCCCCCC)C[C@@H](C)O [Compound 11] is ____.
## Output 92.47

## Input Any idea what EE (%) was measured for CCCCCCCCCOC(=O)CCCCCCCN(CCO)CCCCCCCCCOC(=O)C(CCCCCC)CCCCCCCC (stereo not drawn) [Compound 134] ?
## Output 94.62

## Input Which EE (%) is reported for this molecule? CCCCCCCCCCCOC(=O)CCCCCN(CCO)CCCCCCCC(=O)N(CCCCCCCC)CCCCCCCC [Compound 129]
## Output 77.2
